Target: ERs (Homo sapiens, UniProt P03372)
Construct: endogenous in cells
Sequence (P03372 whole entry): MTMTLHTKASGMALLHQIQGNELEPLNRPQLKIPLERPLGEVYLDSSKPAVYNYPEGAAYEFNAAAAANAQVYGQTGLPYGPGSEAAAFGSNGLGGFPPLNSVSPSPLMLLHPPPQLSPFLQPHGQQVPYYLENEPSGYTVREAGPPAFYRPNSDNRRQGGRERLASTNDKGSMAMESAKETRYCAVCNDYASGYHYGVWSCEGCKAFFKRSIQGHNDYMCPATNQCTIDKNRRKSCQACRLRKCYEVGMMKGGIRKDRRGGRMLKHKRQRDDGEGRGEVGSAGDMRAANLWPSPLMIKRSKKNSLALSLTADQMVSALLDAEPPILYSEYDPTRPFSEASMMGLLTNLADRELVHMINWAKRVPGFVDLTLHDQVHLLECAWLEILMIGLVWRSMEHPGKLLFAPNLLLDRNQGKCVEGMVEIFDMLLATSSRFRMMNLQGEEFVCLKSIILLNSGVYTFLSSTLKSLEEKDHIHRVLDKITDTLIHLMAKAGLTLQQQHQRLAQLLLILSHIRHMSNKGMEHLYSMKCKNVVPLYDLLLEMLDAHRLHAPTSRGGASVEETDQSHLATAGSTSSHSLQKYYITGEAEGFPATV
Test: ER transactivation assay in ERE-Luc B17 cells (luciferase reporter)
Details: ERE-Luc B17 cells (MCF-7 clone), 24 h, luciferase activity, sigmoidal dose-response; read-out: EC50 (transactivation potency)
pEC50: −log10 of the molar value.
assay-endpoint: pEC50

chemical-string: CCCCOC(=O)CCC#C[C@]1(O)CC[C@H]2[C@@H]3CCc4cc(O)ccc4[C@H]3CC[C@@]21C
pEC50: 8.89

[a] COC(=O)CCCC#C[C@]1(O)CC[C@H]2[C@@H]3CCc4cc(O)ccc4[C@H]3CC[C@@]21C
[b] CCCOC(=O)CCC#C[C@]1(O)CC[C@H]2[C@@H]3CCc4cc(O)ccc4[C@H]3CC[C@@]21C
[c] COC(=O)CCC#C[C@]1(O)CC[C@H]2[C@@H]3CCc4cc(O)ccc4[C@H]3CC[C@@]21C
**Query** List items by pEC50 in falling order. Enter labels, ranked according to the request.
**Result** a, c, b
(a: 6.89, c: 6.04, b: 5.64)

Values were extracted from paper PMC5451472.
